Reference source for all entries: patent US20230287082A1

Collected EC50 (pM), A431 lysis with PBMC values appear next to each entry.
# test system: NKp30 on human NK cells (human) (UniProt O14931)
# Sequence (O14931 19-201): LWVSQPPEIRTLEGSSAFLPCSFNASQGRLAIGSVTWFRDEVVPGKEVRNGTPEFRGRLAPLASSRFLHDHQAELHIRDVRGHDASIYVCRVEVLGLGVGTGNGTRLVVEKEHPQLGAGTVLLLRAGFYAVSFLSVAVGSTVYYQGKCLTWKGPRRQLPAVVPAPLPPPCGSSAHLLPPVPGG
# assay remarks: cell-based or functional assay
Answer in pM, number only, no unit symbol.

Some solved cases for reference:
{"binder": "ΔB7-H6_S3#17-SEED-PGLALA (bispecific antibody, part only; not given: SEED Fc chains and hu225 EGFR Fab, part only) chain, part: DLKVEMMAGGTQITPLNDNVTIFCNIFYSQPLNITSMGITWFWKSLTFDKEVKVFEFYGDHQEAFRPGAIVSPWRLKSGDASLRLPGIQLEEAGEYRCEVFVTPLKAQGTVQLEVVASPAS", "unit tag": "pM", "EC50 (pM), A431 lysis with PBMC": 427}
{"binder": "ΔB7-H6_S3#22-SEED-PGLALA (bispecific antibody, part only; not given: SEED Fc chains and hu225 Fab, part only) chain, part: DLKVEMMAGGTQITPLNDNVTIFCNIFYSQPLNITEMGITWFWKSLTFDKEVKVFEFWGDHQEAFRPGAIVSPWRLKSGDASLRLPGIQLEEAGEYRCEVVVTPYKAQGTVQLEVVASPAS", "unit tag": "pM", "EC50 (pM), A431 lysis with PBMC": 106}
{"binder": "ΔB7-H6_S3#14-SEED-PGLALA (bispecific antibody, part only; not given: SEED Fc chains and hu225 Fab, part only) chain, part: DLKVEMMAGGTQITPLNDNVTIFCNIFYSQPLNITTMGITWFWKSLTFDKEVKVFEFYGDHQEAFRPGAIVSPWRLKSGDASLRLPGIQLEEAGEYRCEVVVTPYKAQGTVQLEVVASPAS", "unit tag": "pM", "EC50 (pM), A431 lysis with PBMC": 21}

input: Fill in the blank: the reported EC50 (pM), A431 lysis with PBMC of ΔB7-H6_S2#14-SEED-PGLALA (bispecific antibody, part only; not given: SEED Fc chains and hu225 Fab, part only) chain, part: DLKVEMMAGGTQITPLNDNVTIFCNIFYSQPLNITTMGITWFWKSLTFDKEVKVFEFFGDHQEAFRPGAIVSPWRLKSGDASLRLPGIQLEEAGEYRCEVVVTPYKAQGTVQLEVVASPAS is ____.
output: 158
